- Tested on: rodent lifetime carcinogenesis bioassay, tumor incidence TD50
- Method Summary: carcinogenic potency in animals, long-term in vivo studies, CPDB compilation (AID 1745844)
- Measurement Conditions: rat; strain Fischer 344; females; inhaled; site: all sites + liver; lesion: mononuclear-cell leukemia + hemangiosarcoma + hepatocellular adenoma + hepatocellular carcinoma; dosed 103 weeks; study length 104 weeks
Readout: TD50 (mg/kg/day)
Numbers only, in mg/kg/day.

Noted for "FC(F)=C(F)F" : its TD50 reads 56.3

====

- Test system: rodent lifetime carcinogenesis bioassay, tumor incidence TD50
- Method Summary: carcinogenic potency in animals, long-term in vivo studies, CPDB compilation (AID 1745844)
- Measurement Conditions: mouse; strain B6C3F1; males; in feed; site: lung; lesion: alveolar/bronchiolar adenoma + alveolar/bronchiolar carcinoma; dosed 77 weeks; study length 91 weeks
Readout: TD50 (mg/kg/day)
One number for each entry, in mg/kg/day.

"CNC(=S)N(C)C" has a reported TD50 of 478

====

- System: rodent lifetime carcinogenesis bioassay, tumor incidence TD50
- Method Summary: carcinogenic potency in animals, long-term in vivo studies, CPDB compilation (AID 1745844)
- Measurement Conditions: mouse; strain C3H/HeN-MTV-/Nctr (MTV-); females; in feed; site: mammary gland; lesion: adenocarcinoma, type A; dosed 123 weeks; study length 123 weeks
Readout: TD50 (mg/kg/day)
Numbers only, in mg/kg/day.

response.value for "CC/C(=C(/CC)c1ccc(O)cc1)c1ccc(O)cc1" (field: TD50) = 4.39

====

- Tested on: rodent lifetime carcinogenesis bioassay, tumor incidence TD50
- Method Summary: carcinogenic potency in animals, long-term in vivo studies, CPDB compilation (AID 1745844)
- Measurement Conditions: rat; strain Fischer 344; males; by gavage; site: kidney + preputial gland; lesion: tubular-cell adenoma + tubular-cell adenocarcinoma + carcinoma, NOS; dosed 103 weeks; study length 105 weeks
Readout: TD50

For reference, reported TD50 for "CC1=CC(=O)CC(C)(C)C1" stands at 774 mg/kg/day

====

- Tested on: rodent lifetime carcinogenesis bioassay, tumor incidence TD50
- Method Summary: carcinogenic potency in animals, long-term in vivo studies, CPDB compilation (AID 1745844)
- Measurement Conditions: rat; strain Charles River CD (Sprague-Dawley); females; inhaled; site: mammary gland; lesion: several types; types named in the paper; dosed 104 weeks; study length 104 weeks
Activity calls are given as the source filed them. How the calls were made is not given here.
Readout: TD50

The compound identified as FC(Cl)C(F)(F)F (stereo unspecified) registered its TD50 at 54000 mg/kg/day (inactive)

====

- Test system: rodent lifetime carcinogenesis bioassay, tumor incidence TD50
- Method Summary: carcinogenic potency in animals, long-term in vivo studies, CPDB compilation (AID 1745844)
- Measurement Conditions: rat; strain Fischer 344; males; in feed; site: adrenal gland; lesion: pheochromocytoma + pheochromocytoma, malignant; dosed 104 weeks; study length 104 weeks
Readout: TD50

Documented TD50 of ClC1(Cl)C2(Cl)C3(Cl)C4(Cl)C(Cl)(Cl)C5(Cl)C3(Cl)C1(Cl)C5(Cl)C24Cl (stereo unspecified) : 1.43 mg/kg/day

====

- Test system: rodent lifetime carcinogenesis bioassay, tumor incidence TD50
- Method Summary: carcinogenic potency in animals, long-term in vivo studies, CPDB compilation (AID 1745844)
- Measurement Conditions: mouse; strain Charles River CD1; males; in feed; site: lung; lesion: alveolar/bronchiolar adenoma; dosed 86 weeks; study length 86 weeks
Active and inactive are the calls of the source. The rule behind the calls is not given here.
Readout: TD50

Briefly, TD50 measured for "Cc1ccc2c(-c3ccccc3)nc(=O)n(C(C)C)c2c1" : 5450 mg/kg/day (inactive)

====

- System: rodent lifetime carcinogenesis bioassay, tumor incidence TD50
- Method Summary: carcinogenic potency in animals, long-term in vivo studies, CPDB compilation (AID 1745844)
- Measurement Conditions: mouse; strain Swiss; females; inhaled; site: lung; lesion: adenoma; dosed 78 weeks; study length 104 weeks
Active and inactive are the calls of the source. How the calls were made is not given here.
Readout: TD50

>>> obs_value("FC(F)(Cl)Cl")
"91900 mg/kg/day (inactive)"

Kindly review the next molecule as well.
Per the records, this molecule ( "C=CC" ) has TD50 equal to 19800 mg/kg/day (inactive)

====

- Test system: rodent lifetime carcinogenesis bioassay, tumor incidence TD50
- Method Summary: carcinogenic potency in animals, long-term in vivo studies, CPDB compilation (AID 1745844)
- Measurement Conditions: rat; strain Fischer 344; females; by gavage; site: liver; lesion: one or several types; types not named; dosed 30 weeks; study length 104 weeks
Readout: TD50 (mg/kg/day)
Give bare numbers, in mg/kg/day.

>>> obs_value("NC(=O)N(CCCO)N=O")
1.27
>>> obs_value("CC(=O)CN(N=O)C(N)=O")
4.04

Summary for this compound, "CC(=O)CN(N=O)C(=O)NCCCl" : TD50 is 1.36

====

- Test system: rodent lifetime carcinogenesis bioassay, tumor incidence TD50
- Method Summary: carcinogenic potency in animals, long-term in vivo studies, CPDB compilation (AID 1745844)
- Measurement Conditions: mouse; strain B6C3F1; females; i.p.; site: liver; lesion: hepatocellular adenoma + hepatocellular carcinoma + neoplastic nodule; dosed 47 weeks; study length 86 weeks
Readout: TD50 (mg/kg/day)
Answers are plain numbers, in mg/kg/day.

Entry "S=P(N1CC1)(N1CC1)N1CC1" — recorded TD50 = 1.12

====

- Tested on: rodent lifetime carcinogenesis bioassay, tumor incidence TD50
- Method Summary: carcinogenic potency in animals, long-term in vivo studies, CPDB compilation (AID 1745844)
- Measurement Conditions: mouse; strain B6C3F1; males; by gavage; site: stomach; lesion: papillomatosis + squamous-cell carcinoma + squamous-cell papilloma; dosed 103 weeks; study length 104 weeks
Readout: TD50

Kindly note the recorded TD50 for c1cc(OCC2CO2)cc(OCC2CO2)c1 (stereo unspecified) , which is 37.8 mg/kg/day

====

- System: rodent lifetime carcinogenesis bioassay, tumor incidence TD50
- Method Summary: carcinogenic potency in animals, long-term in vivo studies, CPDB compilation (AID 1745844)
- Measurement Conditions: rat; strain Fischer 344; females; in drinking water; site: esophagus; lesion: several types; types named in the paper; dosed 31 weeks; study length 55 weeks
Readout: TD50

The compound listed as CC(=O)CNCC(O)C(O)N=O (stereo unspecified) has a reported TD50 of 0.0352 mg/kg/day

====

- Test system: rodent lifetime carcinogenesis bioassay, tumor incidence TD50
- Method Summary: carcinogenic potency in animals, long-term in vivo studies, CPDB compilation (AID 1745844)
- Measurement Conditions: rat; strain Fischer 344; females; in drinking water; site: oral cavity; lesion: squamous-cell papilloma; dosed 104 weeks; study length 104 weeks
Readout: TD50

Lookup result for "C=CC(N)=O" ; measured TD50: 16.2 mg/kg/day

====

- Test system: rodent lifetime carcinogenesis bioassay, tumor incidence TD50
- Method Summary: carcinogenic potency in animals, long-term in vivo studies, CPDB compilation (AID 1745844)
- Measurement Conditions: mouse; strain B6C3F1; females; in feed; site: lung; lesion: alveolar/bronchiolar adenoma + alveolar/bronchiolar carcinoma; dosed 78 weeks; study length 90 weeks
Readout: TD50 (mg/kg/day)
One number for each entry, in mg/kg/day.

TD50 for CCOP(=S)(OCC)SC1OCCOC1SP(=S)(OCC)OCC (stereo unspecified) is 1820

====

- Test system: rodent lifetime carcinogenesis bioassay, tumor incidence TD50
- Method Summary: carcinogenic potency in animals, long-term in vivo studies, CPDB compilation (AID 1745844)
- Measurement Conditions: mouse; strain DDY; females; in feed; site: lung; lesion: several types; types named in the paper; dosed 120 weeks; study length 120 weeks
The source made the active and inactive calls. No rule for the calls is given here.
Readout: TD50

So, "O=c1c(O)c(-c2ccc(O)c(O)c2)oc2cc(O)cc(O)c12" ? Its TD50 was 4240 mg/kg/day (inactive)

====

- Tested on: rodent lifetime carcinogenesis bioassay, tumor incidence TD50
- Method Summary: carcinogenic potency in animals, long-term in vivo studies, CPDB compilation (AID 1745844)
- Measurement Conditions: rat; strain Alpk:APfSD; females; in feed; site: liver; lesion: hepatocellular carcinoma; dosed 104 weeks; study length 104 weeks
Readout: TD50

The recorded TD50 for entry "COC(=O)C(C)(C)Oc1ccc(-c2ccc(Cl)cc2)cc1" equals 5.88 mg/kg/day

====

- System: rodent lifetime carcinogenesis bioassay, tumor incidence TD50
- Method Summary: carcinogenic potency in animals, long-term in vivo studies, CPDB compilation (AID 1745844)
- Measurement Conditions: mouse; strain Swiss albino; males; in drinking water; site: preputial gland; lesion: fibrosarcoma; dosed 90 weeks; study length 90 weeks
Readout: TD50 (mg/kg/day)
Answers are plain numbers, in mg/kg/day.

Hey, rodent lifetime carcinogenesis bioassay, tumor incidence TD50 data for "CCCCN(N)C=O" : TD50 came out at 304

====

- Test system: rodent lifetime carcinogenesis bioassay, tumor incidence TD50
- Method Summary: carcinogenic potency in animals, long-term in vivo studies, CPDB compilation (AID 1745844)
- Measurement Conditions: mouse; strain B6C3F1; females; i.p.; site: all sites; lesion: lymphoma; dosed 52 weeks; study length 85 weeks
Readout: TD50

Noted for "CNNCc1ccc(C(=O)NC(C)C)cc1" : its TD50 reads 0.908 mg/kg/day
